# Experimental Context: buffer; pH 7.4; 200.0 µM
Value Type: solubility kinetic

Molecular String	Result
Cc1ccc(NC(=O)CCC(=O)Nc2ccc(C)cc2)cc1	< 0.3 µg/mL
CCOC(=O)c1oc2ccc(Cl)cc2c1NC(C)=O	4.8 µg/mL
Fc1ccc(NC(=S)Nc2cccnc2)c(F)c1F	> 42.5 µg/mL
O=C(O)COc1ccc(Br)cc1/C=N\Nc1ccccn1	> 52.5 µg/mL
COc1ccc(CNC(=O)c2ccncc2)cc1	> 36.3 µg/mL
Cc1cc(C)nc(NC(=S)Nc2cccc(F)c2)c1	< 0.2 µg/mL
CC(=O)c1ccc(N2CCN(CC3CCCCC3)CC2)cc1	22 µg/mL

###

# Experimental Context: buffer; pH 7.4; 200.0 µM
Classification field: enter T for solubility kinetic values not below 10 µg/mL, F for values below it.

Compound	Label
COc1cc(-n2c(C)nc3cc(C(=O)O)ccc32)cc(OC)c1OC	T
Cc1cc(NC(=O)c2ccc([N+](=O)[O-])cc2)n(C)n1	T
Cc1ccc(NC(=O)CC2NCCN(Cc3ccccc3)C2=O)cc1 (stereo not drawn)	T
O=C(COC(=O)c1ccccc1O)NCCc1c[nH]c2ccccc12	F
S=C1NCN(Cc2ccco2)CN1Cc1ccco1	T
CCc1ccccc1NC(=S)N(CCN(C)C)Cc1cccs1	T
CCOc1ccc(C(=O)OCC(=O)N2CCCC2)cc1OCC	T
CC(=O)Nc1ccc(C(=O)CN2C(=O)NC3(CCCCCC3)C2=O)c(F)c1	T
Cc1ccc(N2CC(=O)Nc3c(sc4nc(C)cc(C)c34)C2=O)cc1	F
COc1ccc(NC(=O)NC2(C(=O)N3CCCC3)CCCCC2)cc1	T
Cc1ccc([N+](=O)[O-])cc1S(=O)(=O)Nc1cccc(S(=O)(=O)Nc2ccccc2C(=O)O)c1	T
COCCNC(=O)C(OC(=O)c1cccs1)c1ccc(F)cc1 (stereo not drawn)	T
O=C(Cc1ccccc1)N1CCC2(CC1)NCCc1[nH]cnc12	T
Cc1cnc(NC(=O)CC2CCCC2)s1	T
O=C(Nc1ccon1)Nc1cccc(Cl)c1Cl	F
Cc1ccc(S(N)(=O)=O)c(C)c1N1CCCC1=O	T
O=C1CC2(CCCC2)C(=O)N1CN1CCN(S(=O)(=O)c2ccc(F)cc2F)CC1	T
Cc1ccc(S(=O)(=O)Nc2cc(C)on2)cc1	T
Cc1ccccc1NC(=O)COC(=O)c1cc(C)n(C2CC2)c1C	F
Cc1ccccc1C(=O)OCC(=O)NCc1ccco1	T
CCCCC(=O)Nc1cc(-c2nc3ncccc3o2)ccc1C	F
COc1ccc2[nH]c(-c3ccccc3)cc2c1	F
O=C(Nc1nc(-c2ccc(F)c(F)c2)cs1)c1cnccn1	F
O=C(O)c1cccc(Nc2ccc([N+](=O)[O-])c3nonc23)c1	T
CN(Cc1cccc([N+](=O)[O-])c1)Cc1cccc2ccccc12	F
c1ccc(CN2CCC3(CC2)Nc2ccccc2S3)cc1	T
CC(=O)Nc1ccc(Oc2cncc(Cl)c2)nc1	T
O=C(CCC(=O)c1cccs1)NCc1cccc(Cl)c1	T
Oc1ccc(-c2cnc3ccccc3n2)cc1	T
COC(=O)c1ccc(NC(=S)NC(=O)c2cccnc2)cc1	F
CC(C)CCN1CCN(Cc2cccs2)CC1CCO (stereo not drawn)	T
CCOc1ccc(OCCCC(=O)NCCOc2ccccc2OC)cc1	T
CCC1C(=NO)C(CC)C(c2ccccc2)NC1c1ccccc1 (stereo not drawn)	F
O=C(Cc1ccccc1)NN1CCCCC1	T
COc1cc(C(=O)Nc2cccnc2)cc(OC)c1OC	T
COCCCn1c(=O)c2sccc2n(Cc2ccc(C)cc2)c1=O	F
Cc1ccc(NC(=O)C(C)NC(=O)OCc2ccccc2)cc1C (stereo not drawn)	F
COc1ccc(NC(=O)O/N=C/c2ccncc2)cc1	T
O=S(=O)(Nc1ccccc1F)c1cccc(NC(=S)NCCN2CCOCC2)c1	T
CC(C)(C)C(=O)Nc1cc2c3c(c1)CCC(=O)N3CCC2	T
COc1ccccc1C1CCN(Cc2c(C)[nH]c3ccccc23)CC1	T
COc1ccc(C(=O)O/N=C(\N)c2ccccn2)c(OC)c1	T
NC(=O)C1=CN(Cc2ccc(Cl)cc2)CCC1C(F)(F)F (stereo not drawn)	T
COc1ccc(NC(=O)CNC(=O)c2ccco2)cc1	T
CCOc1ccc(C(C)=O)cc1COc1cccnc1[N+](=O)[O-]	F
COCCN(C(=O)COC(=O)/C=C/c1cccc(C(F)(F)F)c1)c1c(N)n(CC(C)C)c(=O)[nH]c1=O	F
COC(=O)C(C)(N)Cc1ccc(O)cc1.Cl (stereo not drawn)	T
Cc1nc([N+](=O)[O-])c(C(=O)OCc2ccccc2)n1C	T
